Reference source: ChEMBL document CHEMBL3988442

Examples of molecules with documented Percent Effect follow.
Tested on: Trypanosoma cruzi
Assay: Trypanosoma cruzi phosphomannomutase and mannose-1-phosphate guanylyltransferase assay
Format: functional
Parameters: scale not given: direction of the effect not stated beside the values
Details: 10 µM
measurement_name: Percent Effect (%)

{"molecule": "O=C(c1cccc2[nH]ncc12)N1CCCC1c1noc(C2CC2)n1 (centres undefined)", "units_label": "%", "reported": -3.31}
{"molecule": "Cc1cc(C)cc(OCCC(=O)N2CCOCC2c2ncon2)c1 (centres undefined)", "units_label": "%", "reported": -5.11}
{"molecule": "CC(=O)N1CCCN(C(=O)c2cnc3n[nH]c(C)c3c2)CC1", "units_label": "%", "reported": 3.08}
{"molecule": "CN1CCc2nc(C3CCN(C(=O)CCC4CCCC4)CC3)ncc2C1", "units_label": "%", "reported": 5.51}
{"molecule": "CCN(CC)Cc1ccc(C(=O)N2CCCCC2Cn2cccn2)o1 (centres undefined)", "units_label": "%", "reported": -0.0929}
{"molecule": "O=C(CCc1cscn1)NS(=O)(=O)c1ccc2ccccc2c1", "units_label": "%", "reported": 3.4}
{"molecule": "COc1cc(CN(C)C(=O)NCCC2CCCO2)ccc1SC (centres undefined)", "units_label": "%", "reported": 0.781}
{"molecule": "Cc1nn(C)cc1CNC(=O)c1cn(CCC2CCCCN2)nn1 (centres undefined)", "units_label": "%", "reported": 9.64}
{"molecule": "Cc1nc(C)n(C2CCCN(C(=O)CCc3ccncc3)C2)n1 (centres undefined)", "units_label": "%", "reported": 2.34}
{"molecule": "COc1cccc(CCC(=O)N2CCCCC2Cn2cccn2)c1 (centres undefined)", "units_label": "%", "reported": 1.47}
{"molecule": "CCn1c(CN2CCCN(C(=O)OC)CC2)nc2c(F)cccc21", "units_label": "%", "reported": -3.95}
{"molecule": "Cn1cccc1CN1CCC2(CCCN(C(=O)c3cnccn3)C2)C1 (centres undefined)", "units_label": "%", "reported": -10.8}
{"molecule": "O=C(O)C1(Cc2cc(-c3ccc(F)cc3F)no2)CCOCC1", "units_label": "%", "reported": -8.3}
{"molecule": "CC(C)(C)c1cnc(CN2CCC(c3ccnn3CCO)CC2)o1", "units_label": "%", "reported": 7.46}
{"molecule": "CC(C)c1cc(NC(=O)CN2CCc3ccccc3C2)on1", "units_label": "%", "reported": 5.99}
{"molecule": "CN(Cc1ccc(Cl)s1)C(=O)NCc1nnc2n1CCC2", "units_label": "%", "reported": 4.2}
{"molecule": "Fc1ccc(OCCCN2CCOC(Cn3cncn3)C2)cc1 (centres undefined)", "units_label": "%", "reported": 3.79}
{"molecule": "Cc1ccsc1-c1nnc(C2CCN(Cc3ccc(F)cc3)CC2)o1", "units_label": "%", "reported": 7.31}
{"molecule": "Cc1n[nH]c(C)c1C1COCCN1C(=O)Cc1cccc(F)c1 (centres undefined)", "units_label": "%", "reported": -6.46}
{"molecule": "Cn1cc(CN2CCCN(C(=O)c3cc(Cl)cn3C)CC2)cn1", "units_label": "%", "reported": -6.39}
{"molecule": "CCS(=O)(=O)Nc1ccn(Cc2cccc(Cl)c2)n1", "units_label": "%", "reported": 2.85}
{"molecule": "O=C(c1cnccn1)N1CCc2onc(CN3CCOCC3)c2C1", "units_label": "%", "reported": -6.75}
{"molecule": "CN(C)C(=O)N1CCN(C(=O)CCc2ccccc2)[C@H]2CS(=O)(=O)C[C@H]21", "units_label": "%", "reported": 4.44}
{"molecule": "COc1ncccc1CN1CCn2c(Cn3cncn3)cnc2C1", "units_label": "%", "reported": -2.76}

----------
Examples of molecules with documented Percent Effect follow.
Organism: Homo sapiens
Experiment: To identify inhibition of the IFN signalling (Jak-Stat) pathway via expression of an eGFP reporter gene under the control of an IFN-stimulated response element (ISRE) containing MxA promoter.
Assay type: functional
Parameters: scale not given: direction of the effect not stated beside the values
Conditions: 30 µM

{"molecule": "CCC1=N[C@@]2(CC[C@@H]3CN(Cc4ccc(Cl)cc4)C[C@@H]32)C(=O)N1C", "Percent Effect (%)": 14.7}
{"molecule": "COCCN1C(=O)[C@]2(CC[C@@H]3CN(C(=O)NCC(C)C)C[C@@H]32)N=C1C", "Percent Effect (%)": -20.3}
{"molecule": "O=c1c2ccccc2nc2n1CCN(Cc1cccs1)CC2", "Percent Effect (%)": 23.7}
{"molecule": "CC(C)(CNC(=O)OC(C)(C)C)NC(=O)C1CC(=O)N(C2CC2)C1 (configuration not stated)", "Percent Effect (%)": 20.6}
{"molecule": "CC(C)Cc1noc(CN2CCN(CCO)CC2)n1", "Percent Effect (%)": 11.2}
{"molecule": "Cc1nn(C)c(Cl)c1CNCc1cccnc1N1CCOCC1", "Percent Effect (%)": 3.88}
{"molecule": "Cc1ccc(NC2CCN(C(=O)c3cccc(F)c3F)CC2)nn1", "Percent Effect (%)": 10.2}
{"molecule": "CCS(=O)(=O)c1ccccc1C(=O)NCc1ccnc(N(C)C)c1", "Percent Effect (%)": 4.01}
{"molecule": "O=C(NCc1ccccc1)c1nnc2ccc(N3CCOCC3)cc2n1", "Percent Effect (%)": 4.89}
{"molecule": "O=C(NCc1cncc2c1CCN(Cc1cccs1)C2)C1CC1", "Percent Effect (%)": 5.35}
{"molecule": "FC1(F)CCN(Cc2ccncc2)CC12CCN(Cc1ccccn1)C2 (configuration not stated)", "Percent Effect (%)": 17.3}
{"molecule": "CCOc1cc(CN(C)CCOC)ccc1OC(F)F", "Percent Effect (%)": -3.34}
{"molecule": "Cc1n[nH]c(C)c1C1CCCN1C(=O)CNC(=O)C(C)(C)C (configuration not stated)", "Percent Effect (%)": -2.46}
{"molecule": "Cc1ccc(C#N)c(N2CCC(c3nccn3CCN(C)C)CC2)n1", "Percent Effect (%)": 12.9}
{"molecule": "O=C(NC1CCCC1)NC1CCC(C(=O)N2CCSCC2)CC1 (configuration not stated)", "Percent Effect (%)": 23.7}
{"molecule": "CCc1noc(C2CCCCN2C(=O)c2ccn(C3CCCC3)n2)n1 (configuration not stated)", "Percent Effect (%)": 24.3}
{"molecule": "COCC(=O)N1CCC(c2noc3nc(C)cc(C(F)(F)F)c23)CC1", "Percent Effect (%)": 21.4}
{"molecule": "CNc1nc(CNC(=O)Nc2cccc(-c3nnco3)c2)cs1", "Percent Effect (%)": -4.5}
{"molecule": "O=C(CN1CCOC(Cn2cccn2)C1)NCCc1ccc(F)cc1 (configuration not stated)", "Percent Effect (%)": 5.31}
{"molecule": "CC(C)c1n[nH]c(C2CN(Cc3nnc(C4CC4)o3)CCO2)n1 (configuration not stated)", "Percent Effect (%)": 27.6}
{"molecule": "Cc1cc(-c2cnc(N3CCCC(C)C3)nc2-c2cccnc2C)on1 (configuration not stated)", "Percent Effect (%)": 59.4}
{"molecule": "CCCNC(=O)C(C)NC(=O)CCc1ccccc1Br (configuration not stated)", "Percent Effect (%)": 8.51}
{"molecule": "Cc1oncc1C(=O)N1CCC2(CC1)CC(c1ccccc1)C(=O)N2C (configuration not stated)", "Percent Effect (%)": -5.26}
{"molecule": "COc1cccc(-c2nc(C)c(C(=O)N[C@@H](C)C(=O)O)s2)c1", "Percent Effect (%)": 5.55}
{"molecule": "O=C(NCC1CCOCC1)[C@@H]1C[C@@H]2CCN(Cc3ccco3)C[C@H]2O1", "Percent Effect (%)": -10.2}
{"molecule": "Cc1ccc(-c2nc(CN3CCC(C(=O)N(C)C)CC3)cs2)o1", "Percent Effect (%)": 21.9}
{"molecule": "Cc1ccc(NC(=O)c2n[nH]c(-n3cnnc3)n2)cc1C", "Percent Effect (%)": -2.17}
{"molecule": "Cn1cc(CN2C[C@@H]3COC[C@]3(C(=O)NCc3ccccn3)C2)cn1", "Percent Effect (%)": -8.11}
{"molecule": "Cn1cc(CN2CCC(F)(F)C3(CCN(c4cnccn4)C3)C2)cn1 (configuration not stated)", "Percent Effect (%)": 5.63}
{"molecule": "Cc1cc(N2CCC(N(C)C(=O)c3ccccc3)CC2)nc(C)n1", "Percent Effect (%)": 29.3}
{"molecule": "Clc1ccc2cccnc2c1CN1CCCC1Cn1cncn1 (configuration not stated)", "Percent Effect (%)": 63.7}
{"molecule": "Cn1cccc1C(=O)N1CCn2cc(CNC(=O)CC3CC3)nc2C1", "Percent Effect (%)": 0.949}
{"molecule": "COCCN(Cc1ccoc1)C(=O)c1c(F)cccc1Cl", "Percent Effect (%)": -5.55}
{"molecule": "OCCN1CCOC2(CCCN(c3cccc(F)c3)C2)C1 (configuration not stated)", "Percent Effect (%)": 3.49}
{"molecule": "COc1ccc(Br)c(C(=O)NCCNc2ccc(C(F)(F)F)cn2)c1", "Percent Effect (%)": -7.76}
{"molecule": "CNc1cc(C)nc(C2CN(Cc3cc[nH]n3)CCO2)c1 (configuration not stated)", "Percent Effect (%)": -17.5}
{"molecule": "CN1C(=O)CC(C(=O)O)C12CCN(Cc1ccc(Cl)cc1F)CC2 (configuration not stated)", "Percent Effect (%)": 10.2}
{"molecule": "Cc1nnc(NCc2cccnc2N(C)C)c(C#N)c1C", "Percent Effect (%)": 6.79}
{"molecule": "NCCn1nc(C2CCN(C(=O)CC3CCCCC3)C2)c2nccnc21 (configuration not stated)", "Percent Effect (%)": 11.9}
{"molecule": "Cc1cc(C[S+]([O-])CC(=O)NCc2cccs2)no1 (configuration not stated)", "Percent Effect (%)": 5.94}
{"molecule": "COC(=O)C(c1cc(F)ccc1F)N(C)C(=O)c1csnn1 (configuration not stated)", "Percent Effect (%)": 21.4}
{"molecule": "Cc1cc(C)c(CNC(=O)NCC(c2ccccc2)N(C)C)c(=O)[nH]1 (configuration not stated)", "Percent Effect (%)": 4}
{"molecule": "Cc1cc(C)n(CC(=O)N2CCC(NS(=O)(=O)c3ccccc3)CC2)n1", "Percent Effect (%)": 15.1}
{"molecule": "COc1cccc(CN(C)C(=O)Nc2ccc3c(c2)OCCO3)c1", "Percent Effect (%)": 22.9}
{"molecule": "CCc1ncc2c(n1)CN(Cc1nc(C)c(C)o1)CC2", "Percent Effect (%)": 10.1}
{"molecule": "Cc1nnc(NC(=O)NCc2cc(F)cc(F)c2)s1", "Percent Effect (%)": 13.5}
{"molecule": "O=C(c1ccc(N2CCCC2)nn1)N1CCCC(n2cccn2)C1 (configuration not stated)", "Percent Effect (%)": -4.4}
